Target: MMP-13 (Homo sapiens, UniProt P45452)
Construct: catalytic domain (^104Tyr˜^267Gly) was amplified with RT-PCR; His-tag; enterokinase digestion-site; made in house
Assay: Assay for inhibitory activities on MMPs (fluorogenic MOCAc peptide substrate): MMP-13
Assay type: biochemical
Settings: Table 40
Recorded endpoint: IC50 (µM)

Would you please look over these solved cases?
> print(dat)
                                   compound  recorded.endpoint  numeric.value
1  CC(C)c1ccc(-c2cc(-c3ccc(S(=O)(=O)N[C@@H](C(=O)O)C(C)C)cc3)no2)cc1 [Example C-15]               IC50       0.000136
2  CSc1ccc(-c2cc(-c3ccc(S(=O)(=O)N[C@H](C)C(=O)O)cc3)no2)cc1 [Example C-4]               IC50       0.000404
3  CSCC[C@@H](NS(=O)(=O)c1ccc(-c2cc(-c3ccc(C(C)C)cc3)no2)cc1)C(=O)O [Example A-107]               IC50       0.000658
4  CCC(C)[C@H](NS(=O)(=O)c1ccc(-c2cc(-c3ccc(OC(F)(F)F)cc3)on2)cc1)C(=O)O (stereo partly shown) [Example C-102]               IC50       0.000837
5  CC(C)c1ccc(-c2cc(-c3ccc(S(=O)(=O)N[C@@H](C(=O)O)C(C)C)cc3)on2)cc1 [Example A-16]               IC50       0.000328

1 = CC(C)[C@@H](NS(=O)(=O)c1ccc(-c2cc(-c3ccc(OC(F)(F)F)cc3)on2)cc1)C(=O)O [Example C-25]
2 = CC(C)c1ccc(-c2cc(-c3ccc(S(=O)(=O)N[C@H](C(=O)O)C(C)C)cc3)no2)cc1 [Example C-16]
Sort 1 and 2 by IC50 descending and give the first. Give the label of your selection.
2

###

Target: MMP-12 (Homo sapiens, UniProt P39900)
Construct: In regard to MMP-12, catalytic domain(^100Phe˜^263Gly) was amplified with RT-PCR; His-tag; enterokinase digestion-site; made in house
Sequence (P39900 100-263): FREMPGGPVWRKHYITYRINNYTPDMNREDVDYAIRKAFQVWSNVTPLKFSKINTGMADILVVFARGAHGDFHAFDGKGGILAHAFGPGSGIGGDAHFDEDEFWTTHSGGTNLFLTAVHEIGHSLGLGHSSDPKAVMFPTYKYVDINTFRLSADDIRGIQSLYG
Experiment: Assay for inhibitory activities on MMPs (fluorogenic MOCAc peptide substrate): MMP-12
Type: biochemical
Settings: catalytic domain 100Phe-263Gly
Recorded endpoint: IC50 (µM)

Would you please look over these solved cases?
> print(dat)
                                   molecule  recorded.endpoint  numeric.value
1  COc1ccc(-c2cc(-c3ccc(S(=O)(=O)N[C@H](C(=O)O)C(C)C)cc3)on2)cc1F [Example A-39]               IC50       0.000708
2  CSc1ccc(-c2cc(-c3ccc(S(=O)(=O)N[C@@H](C(=O)O)C(C)C)cc3)no2)cc1 [Example C-10]               IC50       0.000201
3  Cc1ccc(-c2cc(-c3ccc(S(=O)(=O)N[C@@H](C(=O)O)C(C)(C)C)cc3)no2)cc1 [Example C-109]               IC50       0.000951
4  Cc1ccc(-c2cc(-c3ccc(S(=O)(=O)N[C@H](C(=O)O)C(C)C)cc3)no2)cc1F [Example C-39]               IC50       0.000238
5  CCC(C)[C@H](NS(=O)(=O)c1ccc(-c2cc(-c3ccc(C)s3)on2)cc1)C(=O)O (stereo partly drawn) [Example C-98]               IC50       0.000629

A = CCC(C)[C@H](NS(=O)(=O)c1ccc(-c2cc(-c3ccc(OC)cc3)on2)cc1)C(=O)O (stereo partly drawn) [Example C-96]
B = CC(C)[C@H](NS(=O)(=O)c1ccc(-c2cc(-c3ccc(C(F)(F)F)cc3)no2)cc1)C(=O)O [Example A-21]
C = COc1ccc(-c2cc(-c3ccc(S(=O)(=O)N[C@H](CC(=O)O)C(=O)O)cc3)no2)cc1F [Example C-118]
D = CC(C)[C@H](NS(=O)(=O)c1ccc(-c2cc(-c3ccc(OC(F)(F)F)cc3)on2)cc1)C(=O)O [Example C-26]
Let's sort these by IC50, smallest first. Go ahead? # output: labels, in the requested order
D, A, B, C
(D: 0.000148 µM, A: 0.000228 µM, B: 0.000608 µM, C: 0.000904 µM)

A = CCc1ccc(-c2cc(-c3ccc(S(=O)(=O)N[C@@H](CC(C)C)C(=O)O)cc3)no2)cc1 [Example C-56]
B = CC(C)C[C@H](NS(=O)(=O)c1ccc(-c2cc(-c3ccc4c(c3)CCO4)on2)cc1)C(=O)O [Example C-91]
C = Cc1ccc(-c2cc(-c3ccc(S(=O)(=O)N[C@H](C)C(=O)O)cc3)no2)cc1 [Example C-1]
Let's sort these by IC50, smallest first. Go ahead? # output: labels, in the requested order
B, A, C
(B: 0.000184 µM, A: 0.000289 µM, C: 0.000707 µM)

###

Target: MMP-9 (Homo sapiens)
Construct: made in house; host or cells: endogenous secretion from human fibrosarcoma HT1080 cells (TPA-stimulated), purified from conditioned medium
Sequence (P14780 107-707 limits assumed): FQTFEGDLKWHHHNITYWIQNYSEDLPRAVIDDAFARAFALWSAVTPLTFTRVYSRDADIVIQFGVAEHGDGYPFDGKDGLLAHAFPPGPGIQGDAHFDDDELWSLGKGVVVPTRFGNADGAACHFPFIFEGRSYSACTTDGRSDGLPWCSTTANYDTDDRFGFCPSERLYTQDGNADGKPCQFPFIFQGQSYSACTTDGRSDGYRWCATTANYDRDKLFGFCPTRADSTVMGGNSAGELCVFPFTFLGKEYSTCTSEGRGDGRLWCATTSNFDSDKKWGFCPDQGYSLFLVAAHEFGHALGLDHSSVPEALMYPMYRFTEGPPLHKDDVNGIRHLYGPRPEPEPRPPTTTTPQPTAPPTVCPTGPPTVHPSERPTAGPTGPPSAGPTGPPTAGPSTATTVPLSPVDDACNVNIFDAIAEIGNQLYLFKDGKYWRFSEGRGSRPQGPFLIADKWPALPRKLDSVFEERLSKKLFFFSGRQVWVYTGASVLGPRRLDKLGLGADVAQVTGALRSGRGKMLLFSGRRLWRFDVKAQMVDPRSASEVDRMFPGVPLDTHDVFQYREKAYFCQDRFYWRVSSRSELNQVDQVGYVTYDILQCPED
Test: Assay for inhibitory activities on MMPs (fluorogenic MOCAc peptide substrate): MMP-9
Format: biochemical
Settings: from HT1080 cells, activated by TPCK-Trypsin
Recorded endpoint: IC50 (µM)

> print(dat)
                                smiles.repr  unit.text  numeric.value
1  CC(C)[C@@H](NS(=O)(=O)c1ccc(-c2cc(-c3ccc(OC(F)(F)F)cc3)on2)cc1)C(=O)O         µM        0.00032
2  CC(C)[C@@H](NS(=O)(=O)c1ccc(-c2cc(-c3ccc(Cl)cc3)on2)cc1)C(=O)O         µM        0.00092

I = CC(C)[C@@H](NS(=O)(=O)c1ccc(-c2cc(-c3ccc(Cl)c(F)c3)on2)cc1)C(=O)O
II = Cc1ccc(-c2cc(-c3ccc(S(=O)(=O)N[C@@H](C(=O)O)C(C)C)cc3)no2)s1
Sort I and II by IC50 descending and give the first. Give the label of your selection.
I

###

Target: MMP-9 (Homo sapiens)
Construct: made in house; host or cells: endogenous secretion from human fibrosarcoma HT1080 cells (TPA-stimulated), purified from conditioned medium
Assay: Assay for inhibitory activities on MMPs (fluorogenic MOCAc peptide substrate): MMP-9
Assay type: biochemical
Conditions: from HT1080 cells, activated by TPCK-Trypsin
Recorded endpoint: IC50 (µM)

> print(dat)
                                smiles.repr  unit.text  numeric.value
1  CC(C)[C@@H](NS(=O)(=O)c1ccc(-c2cc(-c3ccc(OC(F)(F)F)cc3)no2)cc1)C(=O)O         µM        0.00052
2  CCc1ccc(-c2cc(-c3ccc(S(=O)(=O)N[C@@H](C(=O)O)C(C)C)cc3)no2)cc1         µM       0.000532
3  CC(C)[C@@H](NS(=O)(=O)c1ccc(-c2cc(-c3ccc(Cl)s3)on2)cc1)C(=O)O         µM       0.000467
4  CC(C)[C@@H](NS(=O)(=O)c1ccc(-c2cc(-c3ccc(SC(F)(F)F)cc3)no2)cc1)C(=O)O         µM       0.000609
5  CC(C)[C@@H](NS(=O)(=O)c1ccc(-c2cc(-c3ccc(Br)cc3)on2)cc1)C(=O)O         µM       0.000706
6  Cc1ccc(-c2cc(-c3ccc(S(=O)(=O)N[C@H](Cc4ccccc4)C(=O)O)cc3)no2)s1         µM       0.000585

###

Molecular target: MMP-12 (Homo sapiens, UniProt P39900)
Construct: In regard to MMP-12, catalytic domain(^100Phe˜^263Gly) was amplified with RT-PCR; His-tag; enterokinase digestion-site; made in house
Test: Assay for inhibitory activities on MMPs (fluorogenic MOCAc peptide substrate): MMP-12
Type: biochemical
Conditions: catalytic domain 100Phe-263Gly
Recorded endpoint: IC50 (µM)

> print(dat)
                                   molecule                          target.entity  numeric.value
1  CC(C)C[C@H](NS(=O)(=O)c1ccc(-c2cc(-c3ccc(Cl)cc3)no2)cc1)C(=O)O [Example A-65]  MMP-12 (Homo sapiens, UniProt P39900)       0.000492
2  CC(C)C[C@H](NS(=O)(=O)c1ccc(-c2cc(-c3ccc(C(C)C)cc3)on2)cc1)C(=O)O [Example C-60]  MMP-12 (Homo sapiens, UniProt P39900)       0.000335

P = CC(C)C[C@H](NS(=O)(=O)c1ccc(-c2cc(-c3ccc(Cl)c(F)c3)no2)cc1)C(=O)O [Example A-81]
Q = CCc1ccc(-c2cc(-c3ccc(S(=O)(=O)N[C@H](C(=O)O)C(C)C)cc3)no2)cc1 [Example C-13]
Please compare: P and Q . Report which one has the smaller IC50 value. Give the label of your selection.
Q
(Q: 0.000201 µM, P: 0.000357 µM)

1 = CC(C)[C@@H](NS(=O)(=O)c1ccc(-c2cc(-c3ccc(Cl)s3)on2)cc1)C(=O)O [Example C-33]
2 = CCC(C)[C@H](NS(=O)(=O)c1ccc(-c2cc(-c3ccc(Cl)c(Cl)c3)on2)cc1)C(=O)O (stereo partly drawn) [Example C-104]
Please compare: 1 and 2 . Report which one has the smaller IC50 value. Give the label of your selection.
2
